system: OVCAR-4 ovarian; experiment: NCI-60 one-dose screen, 48 h; settings: 10 µM unless noted
About 83,000 compounds went through this panel and 20% of them were active in at least one assay; those are over-represented in the sample as a whole. Activity calls are given as the source filed them. Rule for the calls: active = growth percent below 10; inactive = the rest.
Hi there, use one of these labels in your reply, thanks! True = active, False = inactive

Some entries whose results are on file:
COc1ccc(/C=C2\CN(Cc3cn(CCCNc4ccnc5cc(Cl)ccc45)nn3)C/C(=C\c3ccc(OC)c(OC)c3)C2=O)cc1OC	False
Clc1ccc(Nc2ccnc(N3CCN(c4ccnc5cc(Cl)ccc45)CC3)n2)cc1	False
COc1nc2c(cc1S(=O)(=O)c1ccccc1)CCc1c-2cnn1-c1ccccc1Cl	False
Nc1nc(-c2ccnc(Cl)c2)nn1-c1nc2ccccc2s1	False
CCOC(=O)c1c(-c2cc(OC)c(OC)c(OC)c2)csc1N	False
O=c1[nH]c(=O)n(Cc2ccc(F)cc2)cc1F	False
O=C(c1cnn2c1NC(c1ccc(F)cc1)C2)N1CCCCC1 (stereo not given)	False
COc1cccc(C2CC(=O)Nc3cc4c(cc32)CCC4)c1OC (stereo not given)	False
Cc1nc2cc(Nc3nc(N4CCCCC4)nc(N4CCOCC4)n3)ccc2n1Cc1ccccc1	True

Lab note: next molecule to report on.
Query: What is the recorded call for this molecule in the test? COc1ccc(C2OCC(C)(C)CO2)cc1OC
Response: False

----------
tested on: A549/ATCC NSCLC; experiment: NCI-60 one-dose screen, 48 h; details: 10 µM unless noted
This is part of a sample that, as a whole, favours compounds with a hit. Of some 83,000 tested, about 20% had one in any assay. Active and inactive are the calls of the source. How the source made its calls: active means growth percent below 10; inactive means the rest.
Pick from active, inactive when you respond.

Reference set, count: 8
O=C(COc1cccc(/C=C2\COc3ccccc3C2=O)c1)c1ccccc1	inactive
C=C(C)CCCC(C)CC#N (stereo not drawn)	inactive
Cc1nc2cc(Nc3nc(Nc4ccc(F)cc4)nc(-c4cccs4)n3)ccc2n1Cc1ccccc1	inactive
COc1ccc(-c2[nH]ncc2Nc2cc(OC)c(OC)c(OC)c2)cc1	inactive
FCOC(C(F)(F)F)C(F)(F)F	inactive
Cc1cc[n+](CCc2ccccc2)cc1	inactive
COc1ccc(-c2csc3c2-n2cccc2C3=O)cc1O	inactive
COc1ccc(/C=N\N2CCOCC2)cc1OC1CCCC1	inactive

Query: Hey, what did the test say about CCOC(=O)c1cc2c(n(C)c1=O)-c1cnn(-c3ccc(OC)cc3)c1CC2 ?
Response: inactive

Query: Then this compound: CCCCCCCC/C=C\CCCCCCCCOc1cccc(CC(=O)NCC[N+]2(C)CCCC2)c1
Response: inactive

Query: Ok, now c1ccc2cc(-c3n(Cc4ccc5ccccc5n4)c4ccccc4[n+]3Cc3ccc4ccccc4n3)ccc2c1
Response: active

Query: Entry O=C1C2CC3C(CC2C(=O)[N]1[Sn]([c]1ccccc1)([c]1ccccc1)[c]1ccccc1)C1(Cl)C(Cl)=C(Cl)C3(Cl)C1(Cl)Cl (stereo not drawn) please
Response: active

Query: Try the compound Cc1ccc2c(c1)c(Sc1ccc(C(=O)NO)cc1)c1n2CN(C)CC1
Response: active

Query: Quick one: Cc1ccc(C(=O)Nc2ccccc2N)cc1
Response: inactive

Query: Now this one: COC(=O)c1c2c(c(C)[n+]([O-])c1C)C(=O)C=C(NCc1cccc(OC)c1)C2=O
Response: active

Query: Moving on to the next compound: O=C1NC(=S)S/C1=C\c1cccc([N+](=O)[O-])c1
Response: inactive

Query: Try Nc1nc(N)c(C=Nc2ccc(Br)cc2)c(Nc2ccc(Br)cc2)n1 next.
Response: inactive

Query: Can you check CCCCCCCCCCCCCCCC[N+]1(C)CCOCC1 next?
Response: inactive

Query: CCOC(=O)c1c(-c2cc(OC)c(OC)c(OC)c2)csc1N ?
Response: inactive

Query: And CC(C)OC1=C(Cl)C(=O)c2ccccc2C1=O ?
Response: inactive

Query: Next: COc1ccc(/C=C/C(=O)N2CCC(O)CC2)cc1OC1CCCC1
Response: inactive

Query: What about COc1ccc(/C=C2\Oc3cc(C)c(Cl)cc3C2=O)cc1OC ?
Response: inactive

Query: Ok, now O=C1c2ccccc2-c2nnc(-c3ccc(Br)cc3)cc21
Response: active
